- assay_overview: basal RPMI8226 mitochondrial membrane potential changes, profiling panel, cell-based, JC-1 fluorescence, 24 h, 100 nL compound (AID 1169); note: test concentration not given here
- experimental_setup: RPMI8226 myeloma, JC-1 mitochondrial potential fluorescence, higher = more signal
parameter: z-score
Write no unit; give the number alone.

Use these answered entries as a reference point.
compound=O=C1C[C@@H](O)[C@@H](O)[C@@H]2[C@@H]3C(=O)N(Cc4ccc5c(c4)OCO5)C(=O)[C@@H]3CC[C@@H]12 result_value=-0.893
compound=CC(=O)OC[C@H]1O[C@H](C#CCCCc2ccccc2)C=C[C@@H]1OC(C)=O result_value=-0.861
compound=CN1C(=O)[C@@]2(CCC(=O)OC(C)(C)C)N=C(c3ccc(OCCCO)cc3)O[C@H]2c2ccccc21 result_value=-1.18

The compound identified as COc1ccc(O[C@H]2C=C[C@@H](c3ccccc3)O[C@@H]2COC(=O)CCC(C)=NO[C@H](C)c2cn([C@@H]3COC[C@H]3O)nn2)cc1 registered its z-score at 0.923

The compound identified as CC(C)(C)OC(=O)CC[C@]1(C(=O)NCc2ccccc2)N=C(c2ccc(OCCCO)cc2)O[C@H]1c1ccccc1 registered its z-score at -0.762

The compound identified as CN1C(=O)C2C=CC(C(O)c3ccc(I)cc3)N(NC(=O)OC(C)(C)C)C2C1=O (stereo not given) registered its z-score at -0.698

The compound identified as CC1(C)OCC(C(O)C2=CCCCC2=O)CO1 (stereo not given) registered its z-score at -0.606

The compound identified as C=CCN1C(=O)[C@]2(O[C@H](CCn3cc(CCO)nn3)[C@@H]([Si](C)(C)c3ccc(OC)cc3)[C@@H]2C)c2cc(N3CCOC3=O)ccc21 registered its z-score at -0.585

The compound identified as CO[C@H]1O[C@H](CO)[C@@H](OC(=O)Nc2ccc3c(c2)OCO3)[C@H](OC(=O)Nc2ccccc2-c2ccccc2)[C@@H]1OC(=O)Nc1ccccc1-c1ccccc1 registered its z-score at -1.11

The compound identified as COCCOC(=O)N1C(=O)[C@@]2(c3ccccc31)[C@H](C(N)=O)[C@H]1C(=O)O[C@H](c3ccccc3)[C@H](c3ccccc3)N1[C@@H]2c1ccccc1OCCO registered its z-score at -1.1

The compound identified as COc1ccc(O[C@H]2C=C[C@@H](c3ccccc3)O[C@@H]2COC(=O)N2CCCCC2)cc1 registered its z-score at -0.358

The compound identified as C#CCCCON=C1C[C@@H](O)[C@@H](O)[C@@H]2[C@@H]3C(=O)N(Cc4ccccc4)C(=O)[C@@H]3CC[C@H]12 registered its z-score at 0.379

The compound identified as COc1ccc(O[C@H]2C=C[C@@H](c3ccccc3)O[C@@H]2COC(=O)CCC(C)=NO[C@@H](C)c2cc(-c3c(C)cc(C)cc3C)no2)cc1 registered its z-score at 0.129

The compound identified as CN1C(=O)C2C=CC(C(O)C(c3ccccc3)c3ccccc3)N(NC(=O)OC(C)(C)C)C2C1=O (stereo not given) registered its z-score at -0.654

The compound identified as COc1ccc(COC(=O)NN=C2C[C@@H](O)[C@@H](O)[C@@H]3[C@@H]4C(=O)N(c5ccc(F)cc5F)C(=O)[C@@H]4CC[C@@H]23)cc1 registered its z-score at -0.195
